Biological target: T1, human IL-22 (human, UniProt Q9GZX6 34-179)
T1 sequence: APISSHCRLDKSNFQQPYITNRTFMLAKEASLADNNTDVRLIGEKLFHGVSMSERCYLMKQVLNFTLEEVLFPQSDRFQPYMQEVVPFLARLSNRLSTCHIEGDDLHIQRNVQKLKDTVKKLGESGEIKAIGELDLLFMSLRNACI
Assay: cell-based or functional assay
// reported IC50 of IgG in BaF3-IL-22 proliferation assay per item
Include the unit right after the number.

[[record]]
binder = "376B10 IgG (non-germlined) (antibody, V domains shown, IgG) VH: EVQLVQSGAEVKKPGASVKVSCQASGYTFSDYYIHWVRQTPGQGFEWMGWVNPDTGGTRYAQKFQGWVTMTRDMSNTTAYMELPGLRDDDTAVYYCARDLTGYDQYTAWGQGTLVTVSS VL: QSVLTQPPSVSVAPGKTATITCGGNNFRNKRVHWYQQRPGQAPVLVIYYDSDRPSGIPERFSGSRSGNTATLTISRVEAGDEADFYCSTFDPFTDRPLFGGGTKLTVLG"
reported_value = "119 pM"


# IC50 of IgG in BaF3-IL-22 proliferation assay lookup, item 356A11 germlined IgG (antibody, V domains shown) VH: QVQLVQSGAEVKKPGASVKVSCKASGYTFTNYYMHWVRQAPGQGLEWVGWINPYTGSAFYAQKFRGRVTMTRDTSISTAYMELSRLRSDDTAVYYCAREPEKFDSDDSDVWGRGTLVTVSS VL: QAVLTQPPSVSGAPGQRVTISCTGSSSNIGAGYGVHWYQQLPGTAPKLLIYGDSNRPSGVPDRFSGSKSGTSASLAITGLQAEDEADYYCQSYDNSLSGYVFGGGTQLTVLG 53 pM

Value lookup for IC50 of IgG in BaF3-IL-22 proliferation assay; key = 166G05 IgG (non-germlined) (antibody, V domains shown) VH: EVQLVQSGAEVKKPGASVKVSCQASGYTFSDYYIHWVRQTPGQGFEWMGWVNPDTGGTRYAQKFQGWVTMTRDMSNTTAYMELPRLRDDDTAVYYCARDLTGFDPFDIWGQGTLVTVSS VL: QSVLTQPPSVSVAPGKTATITCGGNNFRNKRVHWYQQRPGQAPVLVIYYDSDRPSGIPERFSGSRSGNTATLTISRVEAGDEADFYCQVWDFLTDSGSFGGGTKLTVLG 97 pM

Which IC50 of IgG in BaF3-IL-22 proliferation assay value belongs to 062A09 IgG (non-germlined) (antibody, V domains shown) VH: QVQLVESGAEVKKPGASVKVSCKASGYTFTSYGISWVRQAPGQGLEWMGWVSAYTGNTNYAQKFQGRVTMTTDTSTSTAYMELRGLRSDDTAVYYCARDRGYYDAFDIWGQGTLVTVSS VL: DIQMTQSPSTLSASIGDRVTITCRASEGIYHWLAWYQQKPGKAPKLLIYKASSLASGAPSRFSGSGFGTDFTLTISSLQPDDFATYYCQQMGEYNATIGGGTKLEIKR ? 83 pM

Would you mind telling me what IC50 of IgG in BaF3-IL-22 proliferation assay value was observed for 097D09 IgG (non-germlined) (antibody, V domains shown, IgG) VH: EVQLVESGGGLVTPGGSLRLSCAASGFTFSDYYMSWVRQAPGRGLEWVSAISGSGGSTYYADSVKGRITISRDNAKNSLYLQMSSLRSEDTAVYYCARGLWVWDPLDYWGRGTLVTVSS VL: DIQMTQSPSTLSASIGDRVTITCRASEGIYHWLAWYQQKPGKAPKLLIYKASSLASGAPSRFSGSGFGTDFTLTISSLQPDDFATYYCQQYSEFAWTFGGGTKLEIKR ? 197 pM

Reported IC50 of IgG in BaF3-IL-22 proliferation assay, binder 062G05 IgG (non-germlined) (antibody, V domains shown, IgG) VH: QVQLVESGAEVKKPGASVKVSCKASGYTFTSYGISWVRQAPGQGLEWMGWISAYTGNTNYAQKFQGRVTMTTDTSTSTAYMELRSLRSDDTAVYYCARDRGYYDAFDIWGQGTLVTVSS VL: DIQMTQSPSTLSASIGDRVTITCRASEGIYHWLAWYQQKPGKAPKLLIYKASSLASGAPSRFSGSGFGTDFTLTISSLQPDDFATYYCQQMGEWKAAFGGGTKLEIKR : ____ 112 pM

Please report the recorded IC50 of IgG in BaF3-IL-22 proliferation assay for 368D04 IgG (non-germlined) (antibody, V domains shown) VH: EVQLVESGGGVVRPGGSLRLSCAASGFTFDDYGMNWVRQAPGKGLEWVSGVNWNGGTRDYAASVKGRFTISRDNAKNSLYLQMNSLRAEDTALYYCARGWYSGAAWNMGYWGRGTLVTVSS VL: QAVLTQPSSVSGSPGQSITISCTGASGDVGAYNFVSWYQQHPGKTPKLIIYDVNKRPSGVSNRFSGSKSGNTASLTISGLQAEDESDYYCASLVSDFSVVFGGGTKVTVLG . 127 pM

Form field: reported IC50 of IgG in BaF3-IL-22 proliferation assay of 355B06 germlined IgG (antibody, V domains shown) VH: QVQLVQSGAEVKKPGASVKVSCKASGYTFTDYYMHWVRQAPGQGLEWVGWINPYTGSAFYAQKFRGRVTMTRDTSISTAYMELSRLRSDDTAVYYCAREPEKFGESSGQLWGRGTLVTVSS VL: QAVLTQPPSVSGAPGQRVTISCTGSSSNIGAGYGVHWYQQLPGTAPKLLIYGDSNRPSGVPDRFSGSKSGTSASLAITGLQAEDEADYYCQSYDSGLSGYVFGGGTQLTVLG 92 pM

Which value of IC50 of IgG in BaF3-IL-22 proliferation assay has been reported for 166B06 IgG (non-germlined) (antibody, V domains shown) VH: EVQLVQSGAEVKKPGASVKVSCQASGYTFSDYYIHWVRQTPGQGFEWMGWVNPDTGGTRYAQKFQGWVTMTRDMSNTTAYMELPRLRDDDTAVYYCARDLTGFDPFDIWGQGTLVTVSS VL: QSVLTQPPSVSVAPGKTATITCGGNNFRNKRVHWYQQRPGQAPVLVIYYDSDRPSGIPERFSGSRSGNTATLTISRVEAGDEADFYCQVWDLFNDNGVFGGGTKLTVLG in the records? 71 pM

If you can, please state the reported IC50 of IgG in BaF3-IL-22 proliferation assay value of 375G06 IgG (non-germlined) (antibody, V domains shown, IgG) VH: EVQLVQSGAEVKKPGASVKVSCQASGYTFSDYYIHWVRQTPGQGFEWMGWVNPDTGGTRYAQKFQGWVTMTRDMSNTTAYMELPRLRDDDTAVYYCARDLTGYDYYDRWGQGTLVTVSS VL: QSVLTQPPSMSVAPGKTATITCGGNNFRNKRVHWYQQRPGQAPVLVIYYDSDRPSGIPERFSGSRSGNTATLTISRVEAGDEADFYCQVWDFLADEAMFGGGTKLTVL . 100 pM
